Test system: hepatocyte tethered spheroids
Assay: Inhibition of spheroid spreading/tethering (live cell imaging of spheroid diameter)
Type: cell-based
Details: 24 hour live cell imaging, tethered spheroids on modified PS plates, read-out: Concentration at which spheroids of diameter 90–120 μm decreased by 50% compared to untreated control
MEASUREMENT TYPE: IC50 (µM)
Report only the number, with the unit µM understood.

Data request, read-out IC50, for Cc1c(C)c2c(c(C)c1O)CCC(C)(COc1ccc(CC3SC(=O)NC3=O)cc1)O2 (stereo not shown)
10

Origin of the recorded values: paper PMC7075904
